B1: BTBD1 (parent)
chain: YGSIHGPTDYQVNIQIIEYEKKQT

Variants of: B1
assayMethodText: protein stability index of a GFP-peptide fusion (GPS, HEK-293T) (PSI 1-6); higher = more stable;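 also: lentivirally expressed fusions sorted by FACS into six bins by GFP to DsRed ratio, PSI derived from sequencing read proportions per bin multiplied by bin number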
experimentalSetup: c terminus: a fixed tail appended
Attribute: protein stability index
Field format: numeric only.

Sample records with protein stability index:
Q23L | 1.6
S3P | 3.06
V12A | 3.6
I4L | 2.94
H5T | 2.52
T24Q | 3.18
G2D | 3.7
S3F | 2.64

(Q) Fill in: protein stability index of Q23S is ___
(A) 2.43

(Q) What do you get for K22W ?
(A) 2.5

(Q) What do you get for P7A ?
(A) 2.6
